Below, each of the compounds is paired with its reported Inhibition value.
- Tested on: Plasmodium falciparum
- procedureText: GSK_TCMDC: Inhibition of Plasmodium falciparum Dd2 in whole red blood cells, using parasite LDH activity as an index of growth. Test compounds present at 2uM
- Type: functional

| compound | Inhibition |
| --- | --- |
| COc1cccc(-c2cnc(N)c(-c3nc4cc(Cl)c(F)cc4[nH]3)c2)c1 | 26% |
| O=C(Nc1cccc(C(F)(F)F)c1)c1ccc(S(=O)(=O)NCC2CCN(CC3CCCCC3)CC2)cc1.O=C(O)C(F)(F)F | 49% |
| COc1cc(Cc2cnc3nc(N)nc(N)c3c2C)cc(OC)c1OC | 98% |
| Cc1cc(C(=O)N(Cc2ccc(-c3ccc(CNCCc4ccc(S(C)(=O)=O)cc4)cn3)cc2)C(C)CN(C)C)ccc1[N+](=O)[O-].O=C(O)C(F)(F)F (configuration not stated) | 46% |
| CS(=O)(=O)c1ccc2c(c1)CCN(CCC1CCC(NC(=O)c3cc4cccc(Br)c4[nH]3)CC1)CC2 (configuration not stated) | 7% |
| Cc1noc(C)c1-c1ccc2c(Nc3ccc(Cl)cc3)c(C(N)=O)cnc2c1.Cl | 67% |
| COc1ccc(C#Cc2ccc(-c3c(C)[nH]c(C)c(Cl)c3=O)cc2)cc1 | 97% |
| Cc1ccc(C)c(CC(=O)N2CCC(n3c(C)nc4ccc(F)cc43)CC2)c1 | 99% |
| CCOC(=O)C1=C(C)NC2=C(C(=O)CC(C)(C)C2)C1c1ccc(Cl)cc1 (configuration not stated) | 84% |
| CN1CCN(c2cc(NC(=O)Nc3cccc(Cl)c3Cl)ccc2Cl)CC1.Cl | 21% |
| O=C(/C=C/c1ccc(Cl)c(Cl)c1)NCC(CCCN1CCC(c2c[nH]c3ccccc23)CC1)c1ccccc1 (configuration not stated) | 46% |
| c1ccc(-c2[nH]c3ccccc3c2CN2CCC(N3CCCCC3)CC2)nc1 | 82% |
| CC(C)(C)c1ccc(N2C(N)=NC(N)=NC2(C)C)cc1Cl.Cl | 3% |
| CC(=O)Oc1cc(C)ccc1C1CCN(CCCCNC(=O)c2ccc(-c3ccc(C(F)(F)F)cc3)cc2)CC1 | 94% |
| CC(NC(=O)c1ccc(O)c(-c2ccc(Cl)c(Cl)c2)c1)C(=O)NCCN1CCCC1 (configuration not stated) | 9% |
| COC[C@H]1CCCN1Cc1ccc(-c2ccc(-c3nc4ccccc4[nH]3)s2)cc1 | 58% |
| CCN(CC)CCNc1ccnc2[nH]c3ccc(Cl)cc3c12 | 92% |
| COc1ccc(NC(=O)c2ccc(Br)c(C)c2)cc1N1CCN(CCCCc2ccccc2)CC1.O=C(O)C(=O)O | 17% |
| Cc1[nH]c(C)c(-c2ccc(C#Cc3ccc(F)cc3F)cc2)c(=O)c1Br | 98% |
| CCN(CC)CCNc1ccnc2[nH]c3ccc(C)cc3c12 | 81% |
| COc1cccc(CC(=O)N2CCC(n3c(C)nc4ccc(F)cc43)CC2)c1 | 99% |
| CC1(C)C2C=C(CN3CCC(NC(=O)Nc4ccc(Cl)c(Cl)c4)CC3)C1CC2 (configuration not stated) | 33% |
| COc1cccc(NC(=O)Nc2cc(C)nc3ccccc23)c1 | 48% |
| COc1cc(-c2nc(-c3ccncc3)c(-c3ccc4c(c3)CCC4=NO)[nH]2)ccc1OCCN1CCN(C)CC1.Cl | 77% |
| CN(C)CCN(Cc1ccc(-c2ccc(CNCCc3ccccc3)cc2)nc1)C(=O)CCC1CCCC1.O=C(O)C(F)(F)F | 89% |
| CC[C@@H]([C@@H](Cc1cc2ccccc2s1)C(=O)N[C@@H](CCCCNC(=O)OCc1ccccc1)C(=O)Nc1ccccn1)N(O)C=O | 70% |
| COc1ccc2c(=NN=Cc3ccccc3F)cc(C)[nH]c2c1 | 12% |
| CCOc1cc(CNCCCCCCNCc2cc(OCC)c(OCC)c3ccccc23)c2ccccc2c1OCC.CS(=O)(=O)O | 99% |
| CC1CN(Cc2cccc(F)c2)CCN1c1ccc(NC(=O)c2cccs2)cc1.O=C(O)C(F)(F)F (configuration not stated) | 96% |
| Cn1cc(C(=O)Nc2cccc(-c3cccc(-c4nc5cc(F)ccc5[nH]4)c3)c2)n(C)c1=O | 50% |
| COc1ccc2nccc(NC(=O)C3(O)CCC(NCc4ccc5c(c4)NCCS5)CC3)c2n1.Cl (configuration not stated) | 64% |
| CN(C(=O)c1snnc1-c1ccccc1)C1CCN(CCCCCNC(=O)/C=C/c2ccc(Cl)c(Cl)c2)CC1 | 58% |
| Cl.O=c1cc(NCCCNC2CCOc3c(Cl)cc(Cl)cc32)[nH]c2ccccc12 (configuration not stated) | 88% |
| Cc1cccc2nc(-c3ccc(-c4cccc(NC(=O)COc5ccccc5C(N)=O)c4)s3)[nH]c12 | 19% |
| S=C(NCCCCCN1CCC(c2c[nH]c3ccccc23)CC1)Nc1ccc(Cl)c(Cl)c1 | 31% |
| Cc1cccc2nc(-c3ccc(-c4ccc(NC(=O)Nc5ccsc5)cc4)cc3)[nH]c12 | 70% |
| Clc1ccc2c(N3CCCNCC3)ccnc2c1 | 99% |

* * *

Catalogue of Inhibition readings, one per entry.
- Test system: Plasmodium falciparum
- procedureText: GSK_TCMDC: Inhibition of Plasmodium falciparum 3D7 in whole red blood cells, using parasite LDH activity as an index of growth. Test compounds present at 2uM
- Assay type: functional

| compound | studySystem | Inhibition |
| --- | --- | --- |
| O=C(c1ccc(-c2ccc(-c3nc4ccccc4[nH]3)s2)cc1)N1CCCCC1CN1CCC(O)C1 (centres undefined) | Plasmodium falciparum | 84% |
| Cc1cc(O)c(-c2ccc(S(=O)(=O)c3ccc(Cl)cc3)cc2)c(C)n1 | Plasmodium falciparum | 92% |
| COc1cc(NC(=O)N2CCc3ccc(OCCN4CCCCC4)cc32)cc(C(F)(F)F)c1.O=C(O)C(F)(F)F | Plasmodium falciparum | 100% |
| Br.Oc1cccc(CCNCCCCCCNCCc2ccc(Cl)cc2)c1 | Plasmodium falciparum | 96% |
| Cc1[nH]c(C)c(-c2ccc(/C=C/c3ccccn3)cc2)c(=O)c1Cl | Plasmodium falciparum | 97% |
| CN(C)CCN(C)Cc1ccc(-c2cccc(NC(=O)c3ccc(Cl)cc3)c2)cc1.O=C(O)C(F)(F)F | Plasmodium falciparum | 97% |
| O=C(/C=C/c1ccc(Cl)c(Cl)c1)NCCCCCN1CCC(C(=O)Nc2ccc3c(c2)OCO3)CC1 | Plasmodium falciparum | 92% |
| FC(F)(F)c1cccc(-c2cc(NCCCn3ccnc3)nc(-c3ccncc3)n2)c1 | Plasmodium falciparum | 100% |
| O=c1cc(NCCCNC2CCc3ccc(Cl)cc32)[nH]c2ccccc12 (centres undefined) | Plasmodium falciparum | 92% |
| O=C(Nc1ccc(Br)cc1)N(CCN1CCOCC1)CC(O)COc1ccc(Cl)c(F)c1.O=C(O)C(F)(F)F (centres undefined) | Plasmodium falciparum | 98% |
| Cc1[nH]c(-c2ccc(F)cc2)cc1C(=O)NC1CCN(Cc2ccccc2)CC1 | Plasmodium falciparum | 84% |
| CN(CCCNCc1ccc2ccccc2c1)CCCNCc1ccc2ccccc2c1.Cl | Plasmodium falciparum | 100% |
| CC(=O)Nc1cccc(C(=O)Nc2cccc(-c3ccc(-c4nc5cccc(C)c5[nH]4)cc3)c2)c1 | Plasmodium falciparum | 95% |
| Cc1c(Cc2ccccc2)c(=O)oc2c(C)c3c(cc12)CN(CC(C)c1ccccc1)CO3 (centres undefined) | Plasmodium falciparum | 98% |
| O=C(Nc1ccc(Cl)cc1)Nc1ccc(-c2cccc(-c3nc4cc(F)ccc4[nH]3)c2)cc1 | Plasmodium falciparum | 100% |
| Br.C=CCN1Cc2c(O)cccc2C(c2ccc(O)c(O)c2)C1 (centres undefined) | Plasmodium falciparum | 97% |
| CC(C)C[C@@H](NC(=O)OC(C)(C)C)C(=O)Nc1ccc(Cc2ccc(NC(=O)[C@@H](CC(C)C)NC(=O)OC(C)(C)C)cc2)cc1 | Plasmodium falciparum | 96% |
| Oc1cccc(-c2nc3cc(C4=NC5CCCCC5N4)ccc3[nH]2)c1 (centres undefined) | Plasmodium falciparum | 94% |
| Cc1cc(C2CCN(CCCCNC(=O)c3ccc(NC(=O)c4ccc(Cl)cc4)cc3)CC2)c(C)cc1OCc1nccn1C.Cl | Plasmodium falciparum | 100% |

* * *

- Test system: Plasmodium falciparum
- procedureText: GSK_TCMDC: Inhibition of Plasmodium falciparum Dd2 in whole red blood cells, using parasite LDH activity as an index of growth. Test compounds present at 2uM
- Format: functional

| molecule | unitAbbreviation | Inhibition |
| --- | --- | --- |
| CCN(CC)CCNC(=O)c1ccc(NC(=O)c2oc3c(Cl)cccc3c2C)cc1 | % | 68 |
| Cc1ccc(OCC2CCN(c3ncc(C(=O)NCCCN4CCCC4=O)cc3Cl)CC2)cc1 | % | 71 |
| Oc1ccccc1CN1CCCC(COC(c2ccc(F)cc2)c2ccc(F)cc2)C1 (centres undefined) | % | 98 |
| O=C(NCCCCCN1CCC(c2c[nH]c3ccccc23)CC1)c1ccc(-c2cccnc2)cc1 | % | 10 |
| CC(=O)Nc1ccc(C(=O)NC2CCN(c3ccnc4cc(Cl)ccc34)C2)cc1.O=C(O)C(F)(F)F (centres undefined) | % | 100 |
| Cc1ccc(NC(=O)c2cccc(C#N)c2)cc1-c1ccc(C(=O)Nc2ccncc2)cc1 | % | 64 |
| Cl.N=C(N)c1cc(Cl)cc(NC(=O)Nc2cc(Cl)cc(C(=N)N)c2)c1 | % | 92 |
| CO/C(=C\C=C\c1cc2cc(Cl)c(Cl)cc2[nH]1)C(=O)NC1CC2CCC(C1)N2C.Cl (centres undefined) | % | 23 |
| N#Cc1ccc(N/C(=N\c2ccc(-c3ccccc3)cc2)NCc2cccnc2)c(O)c1 | % | 46 |

From: ChEMBL document CHEMBL1157539
